test system: factor IIa (Homo sapiens); construct: anti-factor IIa; from tissue; assay: Antithrombin III mediated anti-factor IIa activity, purified plasma proteins; type: biochemical; settings: standard curve using heparin (Mr avg 14,000), 167 units/mg
Sequence (P01008 33-464): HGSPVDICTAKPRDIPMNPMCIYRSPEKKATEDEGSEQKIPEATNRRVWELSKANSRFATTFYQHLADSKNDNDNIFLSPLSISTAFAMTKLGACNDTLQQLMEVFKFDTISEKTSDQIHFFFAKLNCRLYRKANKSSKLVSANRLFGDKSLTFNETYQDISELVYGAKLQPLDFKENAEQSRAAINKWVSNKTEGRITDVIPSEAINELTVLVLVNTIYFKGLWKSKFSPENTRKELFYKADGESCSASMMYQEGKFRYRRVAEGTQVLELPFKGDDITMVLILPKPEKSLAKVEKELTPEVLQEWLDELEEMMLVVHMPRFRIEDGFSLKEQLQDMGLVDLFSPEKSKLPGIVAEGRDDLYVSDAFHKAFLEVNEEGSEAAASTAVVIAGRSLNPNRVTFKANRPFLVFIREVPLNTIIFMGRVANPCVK
endpoint.label: Anticoagulant ACTIVITY Antithrombin III mediated Anti-factor IIa

compound | observed
O=C(O)C1=CC(O)C(OS(=O)(=O)O)C(OC2C(COS(=O)(=O)O)OC(OC3C(C(=O)O)OC(OC4C(COS(=O)(=O)O)OC(OC5C(C(=O)O)OC(OC6C(COS(=O)(=O)O)OC(OC7C(C(=O)O)OC(OC8C(COS(=O)(=O)O)OC(OC9C(C(=O)O)OC(OC%10C(COS(=O)(=O)O)OC(O)C(NS(=O)(=O)O)C%10O)C(OS(=O)(=O)O)C9O)C(NS(=O)(=O)O)C8O)C(OS(=O)(=O)O)C7O)C(NS(=O)(=O)O)C6O)C(OS(=O)(=O)O)C5O)C(NS(=O)(=O)O)C4O)C(OS(=O)(=O)O)C3O)C(NS(=O)(=O)O)C2O)O1 (centres unmarked) [10D] | < 3 units/μmole
O=C(O)C1=C[C@H](O)[C@@H](OS(=O)(=O)O)[C@H](O[C@H]2[C@H](O)[C@@H](NS(=O)(=O)O)[C@@H](O[C@H]3[C@H](O)[C@@H](OS(=O)(=O)O)[C@H](O[C@H]4[C@H](O)[C@@H](NS(=O)(=O)O)C(O)O[C@@H]4COS(=O)(=O)O)O[C@H]3C(=O)O)O[C@@H]2COS(=O)(=O)O)O1 (some centres unmarked) | < 2 units/μmole
O=C(O)C1=C[C@H](O)[C@@H](OS(=O)(=O)O)[C@H](O[C@H]2[C@H](O)[C@@H](NS(=O)(=O)O)C(O)O[C@@H]2COS(=O)(=O)O)O1 (some centres unmarked) | < 1 units/μmole
O=C(O)C1=CC(O)C(OS(=O)(=O)O)C(OC2C(COS(=O)(=O)O)OC(OC3C(C(=O)O)OC(OC4C(COS(=O)(=O)O)OC(OC5C(C(=O)O)OC(OC6C(COS(=O)(=O)O)OC(OC7C(C(=O)O)OC(OC8C(COS(=O)(=O)O)OC(O)C(NS(=O)(=O)O)C8O)C(OS(=O)(=O)O)C7O)C(NS(=O)(=O)O)C6O)C(OS(=O)(=O)O)C5O)C(NS(=O)(=O)O)C4O)C(OS(=O)(=O)O)C3O)C(NS(=O)(=O)O)C2O)O1 (centres unmarked) | < 3 units/μmole
O=C(O)C1=C[C@H](O)[C@@H](OS(=O)(=O)O)[C@H](O[C@H]2[C@H](O)[C@@H](NS(=O)(=O)O)[C@@H](O[C@H]3[C@H](O)[C@@H](O)[C@H](O[C@H]4[C@H](O)[C@@H](NS(=O)(=O)O)C(O)O[C@@H]4COS(=O)(=O)O)O[C@@H]3C(=O)O)O[C@@H]2COS(=O)(=O)O)O1 (some centres unmarked) | < 2 units/μmole
O=C(O)C1=C[C@H](O)[C@@H](OS(=O)(=O)O)[C@H](O[C@H]2[C@H](O)[C@@H](NS(=O)(=O)O)[C@@H](O[C@H]3[C@H](O)[C@@H](OS(=O)(=O)O)[C@H](O[C@H]4[C@H](O)[C@@H](NS(=O)(=O)O)C(O)O[C@@H]4COS(=O)(=O)O)O[C@H]3C(=O)O)O[C@@H]2CO)O1 (some centres unmarked) | < 1 units/μmole
CC(=O)NC1C(OC2C(C(=O)O)OC(OC3C(COS(=O)(=O)O)OC(O)C(NS(=O)(=O)O)C3OS(=O)(=O)O)C(O)C2O)OC(COS(=O)(=O)O)C(OC2OC(C(=O)O)C(OC3OC(COS(=O)(=O)O)C(OC4OC(C(=O)O)=CC(O)C4OS(=O)(=O)O)C(O)C3NS(=O)(=O)O)C(O)C2O)C1O (centres unmarked) | 11 units/μmole
O=C(O)C1=CC(O)C(OS(=O)(=O)O)C(OC2C(COS(=O)(=O)O)OC(OC3C(C(=O)O)OC(OC4C(COS(=O)(=O)O)OC(OC5C(C(=O)O)OC(OC6C(COS(=O)(=O)O)OC(O)C(NS(=O)(=O)O)C6O)C(OS(=O)(=O)O)C5O)C(NS(=O)(=O)O)C4O)C(OS(=O)(=O)O)C3O)C(NS(=O)(=O)O)C2O)O1 (centres unmarked) | < 2 units/μmole
